# System: 755483-174-R-J1-PDC complex spheroid growth, percent test/control;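 note: spheroids exposed to compounds for seven days before readout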
# METHOD SUMMARY: Anticancer human tumor 755483-174-R-J1-PDC patient-derived rhabdomyosarcoma cell line growth inhibition [Asc]
# DETAILS: second compound 0.316 µM; first compound 0.000316 µM; hits give low values
Each entry below lists one item and its recorded viability, T/C value.
ATTRIBUTE MEASURED: viability, T/C (%)

• Cn1ncnc1[C@H]1c2n[nH]c(=O)c3cc(F)cc(c23)N[C@@H]1c1ccc(F)cc1 + CNC(C)C(=O)NC1CN(S(=O)(=O)c2cccc(S(=O)(=O)N3CCC4CCC(C(=O)NC(c5ccccc5)c5ccccc5)N4C(=O)C(NC(=O)C(C)NC)C3)c2)CCC2CCC(C(=O)NC(c3ccccc3)c3ccccc3)N2C1=O = 31.5
• Cn1ncnc1[C@H]1c2n[nH]c(=O)c3cc(F)cc(c23)N[C@@H]1c1ccc(F)cc1 + Cc1c(S(C)(=O)=O)c(-c2cc(F)cc(N3CCN(c4ccc(NS(=O)(=O)c5ccc(NC(CCN6CCC(C(=O)OCCCP(=O)(O)O)CC6)CSc6ccccc6)c(S(=O)(=O)C(F)(F)F)c5)cc4)CC3)c2)c(-c2ccc(Cl)cc2)n1C(C)C = 46.2
• NC1CCC(NC2CC2c2ccccc2)CC1 (centres undefined) + CNC(C)C(=O)NC1CN(S(=O)(=O)c2cccc(S(=O)(=O)N3CCC4CCC(C(=O)NC(c5ccccc5)c5ccccc5)N4C(=O)C(NC(=O)C(C)NC)C3)c2)CCC2CCC(C(=O)NC(c3ccccc3)c3ccccc3)N2C1=O = 26.7
• NC1CCC(NC2CC2c2ccccc2)CC1 (centres undefined) + Cc1c(S(C)(=O)=O)c(-c2cc(F)cc(N3CCN(c4ccc(NS(=O)(=O)c5ccc(NC(CCN6CCC(C(=O)OCCCP(=O)(O)O)CC6)CSc6ccccc6)c(S(=O)(=O)C(F)(F)F)c5)cc4)CC3)c2)c(-c2ccc(Cl)cc2)n1C(C)C = 39.7
